- Tested on: human gammaherpesvirus 4
- assay: Binding affinity to EBNA1 G4-quadruplex in human H1299 cells assessed as EB virus EBNA1 expression at 10 uM incubated for 40 hrs by western blot analysis
- Assay type: cell-based
Active and inactive are the calls of the source. No cut-off for these calls is given here.
Outcomes: 1 = active, 0 = inactive

molecule: O=C(N/N=C/c1ccc2c(ccc[n+]2Cc2ccccc2)c1)c1ccc2ccc3ccc(C(=O)N/N=C/c4ccc5c(ccc[n+]5Cc5ccccc5)c4)nc3c2n1.[Br-].[Br-]
label value: 0

molecule: C[n+]1ccc(/C=N/NC(=O)c2ccc3ccc4ccc(C(=O)N/N=C/c5cc[n+](C)cc5)nc4c3n2)cc1.[I-].[I-]
label value: 1

molecule: C[n+]1ccc(/C=N/NC(=O)c2cccc(C(=O)N/N=C/c3cc[n+](C)c4ccccc34)n2)c2ccccc21.[I-].[I-]
label value: 1

molecule: O=C(N/N=C/c1cc[n+](Cc2ccccc2)c2ccccc12)c1ccc2ccc(C(=O)N/N=C/c3cc[n+](Cc4ccccc4)c4ccccc34)nc2n1.[Br-].[Br-]
label value: 0

molecule: C[n+]1ccc(/C=N/NC(=O)c2cccc(C(=O)N/N=C/c3cc[n+](C)cc3)n2)cc1.[I-].[I-]
label value: 0

molecule: C[n+]1ccc(/C=N/NC(=O)c2ccc3ccc(C(=O)N/N=C/c4cc[n+](C)c5ccccc45)nc3n2)c2ccccc21.[I-].[I-]
label value: 0

molecule: O=C(N/N=C/c1cc[n+](Cc2ccccc2)c2ccccc12)c1cc(C(=O)N/N=C/c2cc[n+](Cc3ccccc3)c3ccccc23)ncn1.[Br-].[Br-]
label value: 0

molecule: CC[n+]1cccc2cc(/C=N/NC(=O)c3ccc4ccc5ccc(C(=O)N/N=C/c6ccc7c(ccc[n+]7CC)c6)nc5c4n3)ccc21.[I-].[I-]
label value: 0

molecule: O=C(N/N=C/c1cc[n+](Cc2ccccc2)c2ccccc12)c1cccc(C(=O)N/N=C/c2cc[n+](Cc3ccccc3)c3ccccc23)n1.[Br-].[Br-]
label value: 1

molecule: O=C(N/N=C/c1cc[n+](Cc2ccccc2)c2ccccc12)c1ccc2ccc3ccc(C(=O)N/N=C/c4cc[n+](Cc5ccccc5)c5ccccc45)nc3c2n1.[Br-].[Br-]
label value: 0

molecule: CC[n+]1cccc2cc(/C=N/NC(=O)c3cc(C(=O)N/N=C/c4ccc5c(ccc[n+]5CC)c4)ncn3)ccc21.[I-].[I-]
label value: 1

molecule: C[n+]1ccc(/C=N/NC(=O)c2cc(C(=O)N/N=C/c3cc[n+](C)cc3)ncn2)cc1.[I-].[I-]
label value: 0

molecule: O=C(N/N=C/c1ccc2c(ccc[n+]2Cc2ccccc2)c1)c1cc(C(=O)N/N=C/c2ccc3c(ccc[n+]3Cc3ccccc3)c2)ncn1.[Br-].[Br-]
label value: 1

---

- assay: Growth inhibition of human MUTU-I cells incubated for 24 hrs by MTT assay

molecule: C[n+]1ccc(/C=N/NC(=O)c2ccc3ccc4ccc(C(=O)N/N=C/c5cc[n+](C)c6ccccc56)nc4c3n2)c2ccccc21.[I-].[I-]
GI50 at 24 h: 50 to 100 µM

molecule: C[n+]1ccc(/C=N/NC(=O)c2cccc(C(=O)N/N=C/c3cc[n+](C)c4ccccc34)n2)c2ccccc21.[I-].[I-]
GI50 at 24 h: > 100 µM

---

- Test system: human gammaherpesvirus 4
- assay: Binding affinity to EB virus F-g4-EBNA1 mRNA assessed as increase in melting temperature at 1 uM by fluorescence method
Here the recorded ΔTm is given for each entry.
measurement name: ΔTm

molecule: C[n+]1ccc(/C=N/NC(=O)c2cccc(C(=O)N/N=C/c3cc[n+](C)cc3)n2)cc1.[I-].[I-]
measurement name: ΔTm
test value: < 10 °C
//
molecule: O=C(N/N=C/c1ccc2c(ccc[n+]2Cc2ccccc2)c1)c1ccc2ccc3ccc(C(=O)N/N=C/c4ccc5c(ccc[n+]5Cc5ccccc5)c4)nc3c2n1.[Br-].[Br-]
measurement name: ΔTm
test value: 20 to 30 °C
//
molecule: C[n+]1ccc(/C=N/NC(=O)c2ccc3ccc(C(=O)N/N=C/c4cc[n+](C)cc4)nc3n2)cc1.[I-].[I-]
measurement name: ΔTm
test value: < 10 °C
//
molecule: C[n+]1cc(NC(=O)c2ccc3ccc4ccc(C(=O)Nc5cc6ccccc6[n+](C)c5)nc4c3n2)cc2ccccc21
measurement name: ΔTm
test value: 30 °C
//
molecule: C[n+]1ccc(/C=N/NC(=O)c2ccc3ccc4ccc(C(=O)N/N=C/c5cc[n+](C)cc5)nc4c3n2)cc1.[I-].[I-]
measurement name: ΔTm
test value: 10 to 20 °C
